Molecular target: human recombinant ENPP1 enzymes (Homo sapiens)
Sequence (P22413 whole entry): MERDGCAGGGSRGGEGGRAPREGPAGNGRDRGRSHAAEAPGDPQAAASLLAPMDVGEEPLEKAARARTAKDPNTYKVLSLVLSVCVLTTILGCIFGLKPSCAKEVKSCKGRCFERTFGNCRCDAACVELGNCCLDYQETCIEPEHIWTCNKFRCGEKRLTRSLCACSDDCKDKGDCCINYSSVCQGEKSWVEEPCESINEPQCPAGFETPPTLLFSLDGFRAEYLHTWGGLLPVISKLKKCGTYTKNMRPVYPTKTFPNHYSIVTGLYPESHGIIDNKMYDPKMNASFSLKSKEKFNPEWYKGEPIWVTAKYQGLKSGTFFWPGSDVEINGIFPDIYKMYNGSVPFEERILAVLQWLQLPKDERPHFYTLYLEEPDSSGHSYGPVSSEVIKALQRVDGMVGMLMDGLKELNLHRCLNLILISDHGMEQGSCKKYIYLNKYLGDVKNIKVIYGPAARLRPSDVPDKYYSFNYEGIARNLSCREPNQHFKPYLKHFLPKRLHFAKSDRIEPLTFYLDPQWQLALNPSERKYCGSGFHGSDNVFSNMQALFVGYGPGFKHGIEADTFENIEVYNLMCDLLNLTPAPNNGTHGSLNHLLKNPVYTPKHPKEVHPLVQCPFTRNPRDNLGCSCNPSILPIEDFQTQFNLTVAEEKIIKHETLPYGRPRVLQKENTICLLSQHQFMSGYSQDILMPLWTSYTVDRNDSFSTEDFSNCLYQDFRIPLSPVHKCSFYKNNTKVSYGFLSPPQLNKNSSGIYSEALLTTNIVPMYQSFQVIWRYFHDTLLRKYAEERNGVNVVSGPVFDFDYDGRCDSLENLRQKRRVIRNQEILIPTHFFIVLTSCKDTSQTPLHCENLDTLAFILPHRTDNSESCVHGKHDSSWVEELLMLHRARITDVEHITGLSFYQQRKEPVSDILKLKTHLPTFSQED
Assay: ENPP1 Enzyme Assay with cGAMP Substrate (AMP-Glo)
Conditions: human recombinant ENPP1, cGAMP 5 μM, 37° C. 90 minutes, AMP-Glo luminescence; read-out: Enzymatic activity (IC50)
Counter-ions that a name gives are not always drawn.
measured-metric: IC50

Before answering, review these 6 worked examples.
{"molecule": "COc1ccc2c(c1)nnn2Cc1ccc(NS(N)(=O)=O)cc1 [Example 104, Hydrochloride]", "study-target": "human recombinant ENPP1 enzymes (Homo sapiens)", "IC50": "1 to 10 µM"}
{"molecule": "CCOc1ccc2c(c1)nnn2-c1ccc(CNS(N)(=O)=O)cc1F", "study-target": "human recombinant ENPP1 enzymes (Homo sapiens)", "IC50": "> 10 µM"}
{"molecule": "NS(=O)(=O)NCc1ccc(-n2nnc3cc(OCF)ccc32)c(F)c1", "study-target": "human recombinant ENPP1 enzymes (Homo sapiens)", "IC50": "> 10 µM"}
{"molecule": "NCc1ccc(-n2nnc3cc(OCF)ccc32)c(F)c1", "study-target": "human recombinant ENPP1 enzymes (Homo sapiens)", "IC50": "> 10 µM"}
{"molecule": "CCOc1ccc2c(c1)nnn2-c1ccc(CN)cc1F", "study-target": "human recombinant ENPP1 enzymes (Homo sapiens)", "IC50": "> 10 µM"}
{"molecule": "COc1cccc2nnn(-c3ccc(CNS(N)(=O)=O)cc3)c12", "study-target": "human recombinant ENPP1 enzymes (Homo sapiens)", "IC50": "> 10 µM"}

Hi team, please reply with IC50 for each item in this list.
1. COc1ccc2c(c1)nnn2-c1ccc(CNS(N)(=O)=O)cn1
2. COc1ccc2c(c1)nnn2C1CCN(CCS(N)(=O)=O)CC1
3. COc1cc(OC)c2nnn(-c3ccc(CN)cc3)c2c1 [Example 9, Hydrochloride]
4. COc1cc2nnn(-c3ccc(CNS(N)(=O)=O)cc3)c2cc1OC
5. CCS(=O)(=O)NCc1ccc(-n2nnc3cc(OC)ccc32)c(F)c1

Response:
["> 10 µM", "< 1 µM", "1 to 10 µM", "< 1 µM", "> 10 µM"]

====

Molecular target: human recombinant ENPP1 enzymes (Homo sapiens)
Experiment: ENPP1 Enzyme Assay with cGAMP Substrate (AMP-Glo)
Conditions: human recombinant ENPP1, cGAMP 5 μM, 37° C. 90 minutes, AMP-Glo luminescence; read-out: Enzymatic activity (IC50)
Experimental: ENPP1 hydrolyzes nucleotides or nucleotide derivatives to produce nucleoside-5′-monophosphate and pyrophosphate. In addition, ENPP1 hydrolyzes 2′,3′-cGAMP to produce 5′-adenosine monophosphate (AMP) and 5′-guanosine monophosphate (GMP). AMP produced from the reaction is measured using the AMP-Glo® kit (Promega). The AMP-Glo® kit contains two reagents. […] The second reagent converts ADP into ATP which is used to generate luminescence in the luciferase reaction. […]
Structures can show the parent of a compound that is named as a salt.
So I've got a bunch of compounds here, and I need their IC50 values.

Hi team, please reply with IC50 for each item in this list.
1. COc1ccc2c(c1)nnn2-c1ccc2c(c1)CN(S(N)(=O)=O)C2 [Example 94]
2. COc1ccc2c(c1)nnn2-c1ccc(CNS(N)(=O)=O)c(F)c1F [Example 65]

Response:
1: < 1 µM; 2: < 1 µM

Hi team, please reply with IC50 for each item in this list.
1. COc1ccc2c(c1)nnn2CC1CCNCC1 [Example 3]
2. CC(F)(F)c1ccc2c(c1)nnn2-c1ccc(CN)cc1 [Example 21]
3. COc1ccc2c(c1)nnn2-c1ccc(N)cc1 [Example 4, Hydrochloride]
4. COc1ccc2c(c1)nnn2-c1cc(F)c(CN)cc1F [Example 17]
5. COc1cccc2c1nnn2-c1ccc(CN)cc1 [Example 6, Hydrochloride]
6. COc1ccc2c(c1)nnn2-c1ccc(C(=O)O)cc1F [Example 116]
7. COc1cc2nnn(-c3ccc4c(c3)CN(S(N)(=O)=O)C4)c2cc1OC [Example 102]

Response:
1 to 10 µM
> 10 µM
1 to 10 µM
> 10 µM
> 10 µM
> 10 µM
< 1 µM

Prompt: Recorded IC50 of NS(=O)(=O)NCc1ccc(-n2nnc3cc(C(F)(F)F)ccc32)c(F)c1 [Example 85] , please.
Response: > 10 µM
